- system: β2 adrenergic receptor
- protocol-notes: ELISA of panned Gs library clones on reconstituted receptor
Please note: yes applies when ELISA is 0.2 or greater, and no applies otherwise.

Answered examples (5):
# binder, class-name
measured = [
    ("QRLRLGPDELF [AG4 …]", "yes"),
    ("QGMQLRRFKLR [AG1 …]", "yes"),
    ("RWLHWQYRGRG [AG20 …]", "yes"),
    ("HRRHIGPFALL [BAR11 …]", "no"),
    ("DRMHLWRFGLL [AG11 …]", "no"),
]

Now let's try a different one.
Decide: ELISA of QWMDLRQHELL [BAR3 …] >= 0.2? no
